# system tested: Myeloperoxidase (Homo sapiens)
# protocol details: The effect on oxygen consumed in the presence of MPO-H2O2.
assay endpoint: Oxygen consumed

INSERT INTO assay_data (molecule, system_tested, assay_endpoint, test_value) VALUES
  ('Cc1c2c[n+](C)ccc2c(C)c2c1c1cc(O)ccc1n2C', 'Myeloperoxidase (Homo sapiens)', 'Oxygen consumed', '7.7 nM/min');

Task: Could you tell me which Oxygen consumed is on file for Cc1c2ccncc2c(C)c2c1[nH]c1ccccc12 [ELLIPTECINE] ?
Output: 0 nM/min

Task: Oxygen consumed for COc1ccc2[nH]c3c(C)c4ccncc4c(C)c3c2c1 ?
Output: 0 nM/min

Task: Please report the recorded Oxygen consumed for Cc1c2cc[n+](C)cc2c(C)c2c1[nH]c1ccc(O)cc12 [ELLIPTINIUM] .
Output: 0 nM/min
